Quick reference: CC50 of the listed items.
# Assay summary: Cytotoxicity against human MT4 cells
# Format: cell-based
Numbers only here, please. The scale is µM.

Look over these answered cases.
O=c1[nH]c2ccccc2cc1O = 115
CCOC(=O)c1c(O)c(=O)[nH]c2ccc(N)cc12 = 250

Exercise: Data request, read-out CC50, for CCOC(=O)c1c(O)c(=O)[nH]c2c(F)cccc12
Key: 238

Exercise: What about O=C(NCc1ccc(F)cc1)c1c(O)c(=O)[nH]c2ccccc12 ?
Key: 29
